Assay: Induction of anti-CD3 antibodies-stimulated human T cell activation at 8 uM assessed fold increase in IL-2 secretion measured by ELISA assay
Type: functional, T cell line
Quick reference for fold change (FC) among some compounds

>  <STRUCTURE_STRING>
C[C@@H](c1cccc(N2Cc3c(cccc3C(F)(F)F)C2=O)c1)C(F)(F)c1nncn1C

>  <fold change (FC)>
0.101

$$$$
>  <STRUCTURE_STRING>
C[C@H](Cc1nncn1C)c1cccc(N2Cc3c(cc(C(=O)N4CC(O)C4)cc3C(F)(F)F)C2=O)c1

>  <fold change (FC)>
0.151

$$$$
>  <STRUCTURE_STRING>
C[C@H](Cc1nncn1C)c1cccc(NC(=O)c2cn3ccnc3cn2)c1

>  <fold change (FC)>
0.101

$$$$

---

Test: Induction of anti-CD3 antibodies-stimulated human CD8+ T cell activation at 10 uM assessed fold increase in CD69 expression measured by flow cytometry analysis
Assay type: functional, T cell line
READOUT_TYPE: fold change (FC)

>  <STRUCTURE_STRING>
COC1CN(Cc2cc3c(c(C(F)(F)F)c2)CN(c2cccc([C@@](C)(F)C(F)(F)c4nncn4C)c2)C3=O)C1

>  <ASSAY_RESULT>
1.401

$$$$
>  <STRUCTURE_STRING>
Cn1cnnc1CC1(c2cccc(NC(=O)c3nc4c(C(F)(F)F)cccc4[nH]3)c2)COC1

>  <ASSAY_RESULT>
1.401

$$$$
>  <STRUCTURE_STRING>
C[C@H](c1cc2c(c(C(F)(F)F)c1)CN(c1cccc(C3(Cc4nncn4C)COC3)c1)C2=O)N1CC[C@H](F)C1

>  <ASSAY_RESULT>
1.401

$$$$

---

This listing pairs compounds with measured pIC50.
Target: E3 ubiquitin-protein ligase CBL-B (Homo sapiens, UniProt Q13191)
Sequence (Q13191 whole entry, the tested form may be a part): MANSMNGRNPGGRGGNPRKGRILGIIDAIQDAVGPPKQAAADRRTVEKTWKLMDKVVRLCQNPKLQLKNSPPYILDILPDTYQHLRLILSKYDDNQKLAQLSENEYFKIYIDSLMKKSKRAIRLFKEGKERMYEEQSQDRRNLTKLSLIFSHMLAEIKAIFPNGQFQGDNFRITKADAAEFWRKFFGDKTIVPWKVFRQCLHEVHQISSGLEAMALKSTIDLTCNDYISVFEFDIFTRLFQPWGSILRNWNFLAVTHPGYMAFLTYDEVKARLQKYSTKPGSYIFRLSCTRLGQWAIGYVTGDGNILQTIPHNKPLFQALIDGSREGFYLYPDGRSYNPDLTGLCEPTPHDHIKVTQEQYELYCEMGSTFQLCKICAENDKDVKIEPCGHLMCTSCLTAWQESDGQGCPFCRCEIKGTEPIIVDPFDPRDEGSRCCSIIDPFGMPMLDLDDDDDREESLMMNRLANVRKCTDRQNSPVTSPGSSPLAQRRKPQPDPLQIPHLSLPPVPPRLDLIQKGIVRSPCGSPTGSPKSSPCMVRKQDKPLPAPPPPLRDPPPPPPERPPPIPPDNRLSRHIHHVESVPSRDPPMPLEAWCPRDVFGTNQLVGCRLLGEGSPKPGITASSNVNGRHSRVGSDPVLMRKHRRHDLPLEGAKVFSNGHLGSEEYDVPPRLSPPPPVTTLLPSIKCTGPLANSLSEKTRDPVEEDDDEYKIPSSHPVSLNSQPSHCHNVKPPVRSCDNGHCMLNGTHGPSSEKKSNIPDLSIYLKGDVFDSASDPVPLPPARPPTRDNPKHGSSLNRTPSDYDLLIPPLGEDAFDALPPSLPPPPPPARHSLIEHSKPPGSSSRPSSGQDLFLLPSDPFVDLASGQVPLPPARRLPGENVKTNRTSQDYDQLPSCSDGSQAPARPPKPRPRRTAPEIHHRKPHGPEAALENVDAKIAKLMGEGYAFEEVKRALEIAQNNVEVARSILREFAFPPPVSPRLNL
Test: Inhibition of N-terminal Avi-tagged human CBL-B (36 to 427 residues) incubated with 60 nM Src kinase for 1.5 hrs followed by incubation with fluorescently labeled UbcH5B-Ub for 1 hr and measured by TR-FRET assay
Type: single protein
pIC50: −log10 of the molar value.
READOUT_TYPE: pIC50

>  <COMPOUND>
Cn1cnnc1CC1(c2cccc(NC(=O)c3cc(CN4CC[C@H](F)C4)nc(C4CC4)n3)c2)COC1

>  <READOUT_TYPE>
pIC50

>  <ASSAY_RESULT>
> 7.00

$$$$
>  <COMPOUND>
Cn1cnnc1CC1(c2cccc(N3Cc4c(cccc4C(F)(F)F)C3=O)c2)CC1

>  <READOUT_TYPE>
pIC50

>  <ASSAY_RESULT>
> 7.00

$$$$
>  <COMPOUND>
CCOc1cc(N2Cc3c(cc([C@@H](C)N4CC[C@H](F)C4)cc3C(F)(F)F)C2=O)cc(C2(Cc3nncn3C)COC2)c1

>  <READOUT_TYPE>
pIC50

>  <ASSAY_RESULT>
> 7.00

$$$$
>  <COMPOUND>
CC(c1cc2c(c(C3CC3)n1)CN(c1cccc(C3(Cc4nncn4C)COC3)c1)C2=O)N1CCCCC1 (configuration not stated)

>  <READOUT_TYPE>
pIC50

>  <ASSAY_RESULT>
> 7.00

$$$$
>  <COMPOUND>
Cn1cnnc1CC1(c2cccc(N3Cc4c(cc(CN5CCCC6CC65)cc4C(F)(F)F)C3=O)c2)COC1 (configuration not stated)

>  <READOUT_TYPE>
pIC50

>  <ASSAY_RESULT>
> 7.00

$$$$
>  <COMPOUND>
Cn1cnnc1CC1(c2cccc(N3Cc4c(cc(CN5CCc6ncccc6C5)cc4C(F)(F)F)C3=O)c2)COC1

>  <READOUT_TYPE>
pIC50

>  <ASSAY_RESULT>
> 7.00

$$$$
>  <COMPOUND>
C[C@H](Sc1nncn1C)c1cccc(NC(=O)c2ccc3ccccc3n2)c1

>  <READOUT_TYPE>
pIC50

>  <ASSAY_RESULT>
≥ 6.00

$$$$
>  <COMPOUND>
Cn1cnnc1CC1(c2cccc(NC(=O)c3nc4c(C(F)(F)F)cccc4[nH]3)c2)COC1

>  <READOUT_TYPE>
pIC50

>  <ASSAY_RESULT>
> 7.00

$$$$
>  <COMPOUND>
Cn1cnnc1CC1(c2cccc(N3Cc4c(cc(CN5CCC(C)(C#N)CC5)cc4C(F)(F)F)C3=O)c2)COC1

>  <READOUT_TYPE>
pIC50

>  <ASSAY_RESULT>
> 7.00

$$$$
>  <COMPOUND>
Cn1cnnc1CC1(c2cccc(N3Cc4c(cc(CN5CC(C)(F)C5)cc4C(F)(F)F)C3=O)c2)COC1

>  <READOUT_TYPE>
pIC50

>  <ASSAY_RESULT>
> 7.00

$$$$
>  <COMPOUND>
Cn1cnnc1CC1(c2cccc(N3Cc4c(cc(CN5[C@@H]6CC[C@H]5C[C@H](F)C6)cc4C(F)(F)F)C3=O)c2)COC1

>  <READOUT_TYPE>
pIC50

>  <ASSAY_RESULT>
> 7.00

$$$$
>  <COMPOUND>
Cc1cc(C(=O)Nc2cccc(C3(Cc4nncn4C)CC(F)(F)C3)c2)nc(C2CC2)n1

>  <READOUT_TYPE>
pIC50

>  <ASSAY_RESULT>
> 7.00

$$$$
>  <COMPOUND>
Cn1cnnc1CC1(c2cccc(NC(=O)c3csc(C(F)(F)F)n3)c2)COC1

>  <READOUT_TYPE>
pIC50

>  <ASSAY_RESULT>
> 7.00

$$$$
>  <COMPOUND>
Cn1cnnc1CC1(c2cccc(N3Cc4c(cc(CN5CCC(F)(F)C5)cc4C(F)(F)F)C3=O)c2)COC1

>  <READOUT_TYPE>
pIC50

>  <ASSAY_RESULT>
> 7.00

$$$$
>  <COMPOUND>
Cn1cnnc1CC1(c2cccc(N3Cc4c(cc(CN5CC[C@H](F)C5)cc4C4CC4)C3=O)c2)COC1

>  <READOUT_TYPE>
pIC50

>  <ASSAY_RESULT>
> 7.00

$$$$
>  <COMPOUND>
Cn1cnnc1CC1(c2cccc(N3Cc4c(cc(C5CCOC5)cc4C(F)(F)F)C3=O)c2)COC1 (configuration not stated)

>  <READOUT_TYPE>
pIC50

>  <ASSAY_RESULT>
> 7.00

$$$$
>  <COMPOUND>
Cc1ccc(C(=O)Nc2cccc([C@H](C)Sc3nncn3C)c2)nc1C1CC1

>  <READOUT_TYPE>
pIC50

>  <ASSAY_RESULT>
> 7.00

$$$$
